Exercise: state measured pIC50 for each of the compounds provided.
Test system: Trypanosoma brucei
Test: Inhibitory concentration against RAD51-/- mutant Trypanosoma brucei
Please express pIC50 as -log10 of the molar concentration.

**Query** Name the recorded pIC50 for CC1CS(=O)(=O)CCN1/N=C/c1ccc([N+](=O)[O-])o1 (centres undefined) [NIFURTIMOX] .
**Result** 5.37

**Query** Find the recorded pIC50 belonging to `CNc1nc(N)nc(N/N=C/c2ccc([N+](=O)[O-])o2)n1` and report it.
**Result** 7.15

**Query** Give the measured pIC50 of `Nc1nc(N)nc(N/N=C/c2ccc([N+](=O)[O-])o2)n1` .
**Result** 7.00

**Query** Would you kindly share the measured pIC50 for O=C(Cn1ccnc1[N+](=O)[O-])NCc1ccccc1 [BENZNIDAZOLE] ?
**Result** 3.94

* * *

Test system: Mus musculus
Test: In vivo antitrypanosomal activity at a dose of 4*20 mg/kg, i.p., in mice infected with Trypanosoma brucei brucei STIB 795 strain, measured as survival days (control 7 days)
Assay type: functional
endpoint-label: Survival

**Query** Record lookup: for Mus musculus, what Survival belongs to `Nc1nc(N)nc(N/N=C/c2ccc([N+](=O)[O-])o2)n1` ?
**Result** >60 days

**Query** Give Survival (Mus musculus) of the following compound: `CNc1nc(NC)nc(N/N=C/c2ccc([N+](=O)[O-])o2)n1`
**Result** 5.25 days

**Query** Form: Entry = `CNc1nc(N)nc(N/N=C/c2ccc([N+](=O)[O-])o2)n1` | System = Mus musculus | Survival = ____
**Result** >60 days

**Query** What Survival appears in the records for this compound with Mus musculus? `CN(C)c1nc(N)nc(N/N=C/c2ccc([N+](=O)[O-])o2)n1`
**Result** 18.3 days

* * *

Test system: Trypanosoma brucei brucei
Test: In vitro inhibitory concentration against blood stream Trypanosoma brucei brucei AT1 wild type incubated for 72 h at 37 degree C
Format: functional, organism-based
pIC50: −log10 of the molar value.
Decide using pIC50: a value greater than or equal to 5 is Yes, a smaller one is No.

**Query** Check if pIC50 >= 5 (inclusive). Item: `NNc1nc(N)nc(N)n1`
**Result** No

**Query** Answer whether pIC50 of `CNc1nc(N)nc(N/N=C/c2ccc([N+](=O)[O-])o2)n1` is greater than or equal to 5.
**Result** Yes

**Query** Reported pIC50 reaches at least 5 for `N/N=C/c1ccc([N+](=O)[O-])o1` ?
**Result** No

**Query** Please indicate if the recorded pIC50 for `O=[N+]([O-])c1ccc(/C=N/O)o1` meets or exceeds 5.
**Result** Yes

**Query** Could you verify whether the entry `Nc1nc(N)nc(N/N=C/c2ccco2)n1` shows pIC50 of no less than 5?
**Result** No

**Query** Could you verify whether the entry CC1CS(=O)(=O)CCN1/N=C/c1ccc([N+](=O)[O-])o1 (stereo not given) shows pIC50 of no less than 5?
**Result** Yes

**Query** Identify whether the reported pIC50 of the following molecule is 5 or greater: `Nc1nc(N)nc(N/N=C/c2cccc([N+](=O)[O-])c2)n1`
**Result** No

**Query** Please check the record `Nc1nc(N)nc(N/N=C/c2ccc([N+](=O)[O-])cc2)n1` and state if its pIC50 is at or above 5.
**Result** No

**Query** State whether the measured pIC50 reaches 5, counting equality as reaching it, for Nc1nc(N)nc(Nc2ccc([As]3SCC(CO)S3)cc2)n1 (stereo not given)
**Result** Yes

**Query** Decide: pIC50 of `Nc1nc(N)nc(N/N=C/c2ccc([N+](=O)[O-])s2)n1` >= 5?
**Result** Yes

**Query** Evaluate `CN(C)c1nc(N/N=C/c2ccc([N+](=O)[O-])o2)nc(N(C)C)n1` : pIC50 at minimum 5?
**Result** Yes

**Query** Assess whether reported pIC50 for `CN(C)c1nc(N)nc(N/N=C/c2ccc([N+](=O)[O-])o2)n1` sits at 5 or higher.
**Result** Yes

**Query** Could you verify whether the entry `Nc1nc(N)nc(N/N=C/c2ccc([N+](=O)[O-])o2)n1` shows pIC50 of no less than 5?
**Result** Yes

**Query** Record `Nc1nc(N)nc(N/N=C/c2cccs2)n1` ; criterion: pIC50 no lower than 5. Met?
**Result** No

**Query** Is pIC50 for `Nc1nc(N)nc(N/N=C/c2ccccc2[N+](=O)[O-])n1` at or above 5?
**Result** No

* * *

Target: Nucleoside transporter 2 (Trypanosoma brucei brucei) (UniProt Q9U763)
Sequence (Q9U763 as listed by the source): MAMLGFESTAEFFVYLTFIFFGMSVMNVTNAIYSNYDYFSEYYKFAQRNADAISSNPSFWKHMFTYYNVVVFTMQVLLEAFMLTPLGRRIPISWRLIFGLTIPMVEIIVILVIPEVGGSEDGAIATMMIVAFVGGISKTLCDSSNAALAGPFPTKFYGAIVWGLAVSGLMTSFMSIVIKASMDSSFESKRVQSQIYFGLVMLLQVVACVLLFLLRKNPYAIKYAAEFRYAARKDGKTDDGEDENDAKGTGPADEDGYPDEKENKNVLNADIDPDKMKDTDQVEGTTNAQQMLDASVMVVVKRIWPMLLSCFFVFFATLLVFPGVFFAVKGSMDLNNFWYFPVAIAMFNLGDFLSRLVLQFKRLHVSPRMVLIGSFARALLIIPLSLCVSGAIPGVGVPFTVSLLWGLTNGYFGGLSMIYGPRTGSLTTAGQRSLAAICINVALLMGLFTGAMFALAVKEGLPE
Assay: In vitro inhibitory concentration against P2 aminopurine transporter of Trypanosoma brucei brucei 427 adenosine (0.5 uM) uptake in presence of 1 mM inosine
Would you mind telling me the reported IC50 of each entry?
Return type: number; implicit unit µM.

**Query** So what's the measured IC50 for this one? Nc1nc(N)nc(Nc2ccc([As]3SCC(CO)S3)cc2)n1 (centres undefined)
**Result** 1.2

**Query** Please report the recorded IC50 for `O=[N+]([O-])c1ccc(/C=N/O)o1` .
**Result** 300

**Query** I am curious: what IC50 value has been reported for `Nc1nc(N)nc(N/N=C/c2cccs2)n1` ?
**Result** 4.9

**Query** Recorded IC50 for `CN(C)c1nc(N/N=C/c2ccc([N+](=O)[O-])o2)nc(N(C)C)n1` , please?
**Result** 129

**Query** Look up IC50: `NNc1nc(N)nc(N)n1`
**Result** 11.9

**Query** I'd like to know its IC50. The compound in question is `N/N=C/c1ccc([N+](=O)[O-])o1`
**Result** 404

**Query** Looking for the measured IC50 of `Nc1nc(N)nc(N/N=C/c2ccc([N+](=O)[O-])s2)n1` , can you help?
**Result** 1.9

**Query** I am curious: what IC50 value has been reported for `Nc1nc(N)nc(N/N=C/c2ccco2)n1` ?
**Result** 15.9

**Query** For the compound `Nc1nc(N)nc(N/N=C/c2ccc([N+](=O)[O-])o2)n1` , what IC50 is on record?
**Result** 22.9
